# Method: compounds distorting NS3 helicase fluorescence signal – biochemical, NIH Clinical Collection, artefact control for HCV NS3 helicase inhibitor project (AID 743272);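 also: HCV NS3 helicase with a Cy5 labelled single stranded DNA probe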
# Study conditions: fluorescence interference counterscreen, HCV NS3 helicase assay; stronger effect = lower value
Below, each entry is listed alongside its reported fluorescence ratio.
Give the figure by itself; no unit, no explanation.

Compound	fluorescence ratio
Nc1nc2c(ncn2COC(CO)CO)c(=O)[nH]1	1.02

Sure, the documented fluorescence ratio for `Nc1nc2c(ncn2CCC(CO)CO)c(=O)[nH]1` is 1.01

Sure, the documented fluorescence ratio for `COc1ccc(C(=O)NCc2ccc(OCCN(C)C)cc2)cc1OC` is 1.05

Sure, the documented fluorescence ratio for `C[C@H]1COc2c(C3(N)CC3)c(F)cc3c(=O)c(C(=O)O)cn1c23` is 1.02

Sure, the documented fluorescence ratio for `O=C1[C@H]2CCCC[C@H]2C(=O)N1CCCCN1CCN(c2nsc3ccccc23)CC1` is 0.96

Sure, the documented fluorescence ratio for `CC(=O)Oc1ccccc1C(=O)Nc1ncc([N+](=O)[O-])s1` is 1

Sure, the documented fluorescence ratio for `Nc1nnc(-c2cccc(Cl)c2Cl)c(N)n1` is 0.99

###

# Method: EMT-state selective cytotoxicity in co-culture – imaging, PC-3E GFP, TEM4-18 mCherry, primary screen (AID 1345086);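 also: cells exposed to compound for 72 h before imaging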
# Study conditions: PC-3E GFP / TEM4-18 mCherry co-culture, imaging cell counts; measured here: epithelial PC-3E GFP cell survival; at 1 µM
Property measured: normalised cell number
Give the figure by itself; no unit, no explanation.

Solved cases below.
>>> df
                                   compound       property_measured  result
0                     O=c1[nH]cnc2nc[nH]c12  normalised cell number    0.95
1  Cc1c(NC(=O)c2cccnc2)c(=O)n(-c2ccccc2)n1C  normalised cell number    1.05
2             O=C(O)/C=C/c1ccc(Cn2ccnc2)cc1  normalised cell number       1
3  CC(=O)OC(C)C[N+](C)(C)C (configuration not stated)  normalised cell number    0.97
4  Cc1cnc(NC(=O)C2=C(O)c3ccccc3S(=O)(=O)N2C)s1  normalised cell number    1.16

Sure, the documented normalised cell number for `Cc1nnc(NS(=O)(=O)c2ccc(N)cc2)s1` is 0.96

Sure, the documented normalised cell number for `CC(C)(Sc1cc(C(C)(C)C)c(O)c(C(C)(C)C)c1)Sc1cc(C(C)(C)C)c(O)c(C(C)(C)C)c1` is 1.14

Sure, the documented normalised cell number for `CCOC(=O)[C@H](CCc1ccccc1)N[C@@H](C)C(=O)N1CCC[C@H]1C(=O)O` is 1.12

###

# Tested on: F380Y/beta4
# Method: BK channel mutant inhibitors and activators – cell-based, U2OS BacMam, thallium flux, beta subunits, selectivity assay, profiling panel (AID 1259406);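 also: initial slope of Thallos dye fluorescence rise after thallium is added; log ratio against the mean of 0.3% DMSO vehicle wells on the same plate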
# Study conditions: U2OS BacMam BK variants, at 30 µM
Property measured: log fold change Tl+ flux
Give the figure by itself; no unit, no explanation.

Solved cases below.
>>> print(df.to_string())
                                   compound   result
0  C#C[C@]1(O)CC[C@H]2[C@@H]3[C@H](C)CC4=C(CCC(=O)C4)[C@H]3CC[C@@]21C   0.0383
1  Cc1nc2n(c(=O)c1CCN1CCC(c3noc4cc(F)ccc34)CC1)CCCC2  -0.0446

Could you now look at the following compound, please?
Sure, the documented log fold change Tl+ flux for `CC(=O)OCC(=O)NCCCOc1cccc(CN2CCCCC2)c1` is -0.0388

###

# Method: drug combination growth inhibition, ovarian cancer – cell-based, oncology-focused library, rucaparib conditional, profiling panel (AID 1508598)
# Study conditions: patient-derived ovarian cancer cells, CellTiter-Glo viability, 144 h; at 0.00122 µM; OCI-P5x cells; with rucaparib 20 µM; 100% = cells with rucaparib alone
The source made the active and inactive calls.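 The calls were made as follows: active = normalized viability below 100% at a tested concentration; inactive = the rest.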
Output constraint: value belongs to active, inactive

IN: I'd appreciate the recorded outcome for `O=NN(CCCl)C(=O)NC1CCCCC1` from this test.
OUT: active

IN: I'd appreciate the recorded outcome for `Cc1nc(-c2ccc(OCC(C)C)c(C#N)c2)sc1C(=O)O` from this test.
OUT: inactive

IN: I'd appreciate the recorded outcome for `O=c1c(O)c(-c2ccc(O)c(O)c2)oc2cc(O)cc(O)c12` from this test.
OUT: active

IN: I'd appreciate the recorded outcome for `CC[C@@]1(O)C(=O)OCc2c1cc1n(c2=O)Cc2cc3c(CN(C)C)c(O)ccc3nc2-1` from this test.
OUT: active

IN: I'd appreciate the recorded outcome for `CN(Cc1cnc2nc(N)nc(N)c2n1)c1ccc(C(=O)N[C@@H](CCC(=O)O)C(=O)O)cc1` from this test.
OUT: inactive

IN: I'd appreciate the recorded outcome for `Cn1nnc2c(C(N)=O)ncn2c1=O` from this test.
OUT: inactive

IN: I'd appreciate the recorded outcome for `CCc1c2c(nc3ccc(OC(=O)N4CCC(N5CCCCC5)CC4)cc13)-c1cc3c(c(=O)n1C2)COC(=O)[C@]3(O)CC` from this test.
OUT: inactive

IN: I'd appreciate the recorded outcome for `COc1cc2c(N3CCN(C(=O)Nc4ccc(OC(C)C)cc4)CC3)ncnc2cc1OCCCN1CCCCC1` from this test.
OUT: active

###

Below, each entry is listed alongside its reported red/green cell ratio (normalised).
# Method: EMT-state selective cytotoxicity in co-culture – imaging, PC-3E GFP, TEM4-18 mCherry, primary screen (AID 1345086);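 also: cells exposed to compound for 72 h before imaging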;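 as to red/green cell ratio (normalised): normalised mesenchymal count divided by normalised epithelial count so high means epithelial killing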
# Study conditions: PC-3E GFP / TEM4-18 mCherry co-culture, imaging cell counts; at 1 µM; actives lie on both sides; counts scaled to control wells, 1 = unselective
Peptide text beside a SMILES is read from it.
Give the figure by itself; no unit, no explanation.

Compound	Result
O=C1OCCN1/N=C/c1ccc([N+](=O)[O-])o1	1.17
COC(=O)[C@H](Cc1ccccc1)NC(=O)[C@@H](N)CC(=O)O (H-Asp-Phe-OMe)	1.23
COc1cc(NS(=O)(=O)c2ccc(N)cc2)ncn1	1.16
CCCCN(CCCC)CCC(O)c1cc2c(Cl)cc(Cl)cc2c2cc(C(F)(F)F)ccc12 (stereo unspecified)	1.18
CCN(CC)CCOC(=O)C(c1ccccc1)C1CCCCC1 (stereo unspecified)	0.94

Sure, the documented red/green cell ratio (normalised) for `CCOC(=O)[C@H](CCc1ccccc1)N[C@@H](C)C(=O)N1[C@H](C(=O)O)C[C@@H]2CCC[C@@H]21` is 0.83

###

# Test target: Mitogen-activated protein kinase 7 (Homo sapiens) (UniProt Q13164)
# Sequence (Q13164 whole entry, looked up, the tested form may be a part): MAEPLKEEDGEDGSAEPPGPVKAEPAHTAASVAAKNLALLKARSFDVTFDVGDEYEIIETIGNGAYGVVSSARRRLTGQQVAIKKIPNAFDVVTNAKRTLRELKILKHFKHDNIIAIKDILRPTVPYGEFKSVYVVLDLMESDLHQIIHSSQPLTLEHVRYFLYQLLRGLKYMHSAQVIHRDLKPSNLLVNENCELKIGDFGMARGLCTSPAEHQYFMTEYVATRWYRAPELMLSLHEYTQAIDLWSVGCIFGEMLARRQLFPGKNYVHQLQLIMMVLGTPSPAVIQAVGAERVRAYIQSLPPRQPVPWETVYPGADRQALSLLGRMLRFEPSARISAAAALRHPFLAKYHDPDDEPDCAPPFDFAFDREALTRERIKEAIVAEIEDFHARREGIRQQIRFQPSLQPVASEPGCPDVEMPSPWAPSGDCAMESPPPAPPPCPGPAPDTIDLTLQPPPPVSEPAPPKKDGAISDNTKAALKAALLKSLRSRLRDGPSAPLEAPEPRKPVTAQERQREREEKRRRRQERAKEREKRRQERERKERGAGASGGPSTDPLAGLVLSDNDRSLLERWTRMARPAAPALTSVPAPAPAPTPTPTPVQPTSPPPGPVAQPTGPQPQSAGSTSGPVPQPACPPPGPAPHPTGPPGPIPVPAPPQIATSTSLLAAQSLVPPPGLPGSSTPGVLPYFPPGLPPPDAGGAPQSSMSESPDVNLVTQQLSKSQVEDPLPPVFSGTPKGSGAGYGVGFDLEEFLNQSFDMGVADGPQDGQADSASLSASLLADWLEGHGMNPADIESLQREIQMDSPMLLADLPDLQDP
# Method: Gal4-ERK5 driven luciferase induction – cell-based, HTS, primary screen (AID 1508626);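 also: luciferase driven by Gal4-ERK5 fusion binding five Gal4 sites before minimal TATA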
# Study conditions: HeLa Gal4-ERK5 transactivation, 18 h, at 5 µM
Activity calls are given as the source filed them.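 How the source made its calls: active means luciferase signal above three times the same-plate solvent-only control wells; inactive means the rest.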
Output constraint: value belongs to 1 for active, 0 for inactive

// known answers, use as guide
In [3]: df
Out[3]:
                                   compound                               test_target  category
0  CC(=O)OC/C=C(C)/C=C/C=C(C)/C=C/C1=C(C)CCCC1(C)C  Mitogen-activated protein kinase 7 (Homo sapiens) (UniProt Q13164)         0
1  CC(=O)Nc1ccc(OCC(O)CNC(C)C)cc1 (stereo not drawn)  Mitogen-activated protein kinase 7 (Homo sapiens) (UniProt Q13164)         0
2  Cc1cc2c(C(C)C)c(O)c(O)c(C=O)c2c(O)c1-c1c(C)cc2c(C(C)C)c(O)c(O)c(C=O)c2c1O  Mitogen-activated protein kinase 7 (Homo sapiens) (UniProt Q13164)         0
3  Nc1ncnc2c1ncn2[C@@H]1O[C@H](COP(=O)(O)O)[C@@H](O)[C@H]1O  Mitogen-activated protein kinase 7 (Homo sapiens) (UniProt Q13164)         1
4  C[C@]12CC[C@@H]3c4ccc(O)cc4CC[C@H]3[C@@H]1CCC2=O  Mitogen-activated protein kinase 7 (Homo sapiens) (UniProt Q13164)         0

IN: I'd appreciate the recorded outcome for `COc1ccc(CN(CCN(C)C)c2ncccn2)cc1` from this test.
OUT: 0

IN: I'd appreciate the recorded outcome for COc1cc2nc(N3CCN(C(=O)C4CCCO4)CC3)nc(N)c2cc1OC (stereo not drawn) from this test.
OUT: 0

###

# Method: viability loss with induced miR-34 in A549 – imaging, A549 dox-inducible miR-34, nuclei and caspase counts, primary screen (AID 1347080)
# Study conditions: A549 miR-34 inducible, Hoechst nuclei count, 48 h; measured here: total cells with miR-34 induction; stronger effect = lower value
Below, each entry is listed alongside its reported cell count.
Give the figure by itself; no unit, no explanation.

Solved cases below.
Molecule	cell count
CO[C@@]1(NC(=O)C(C(=O)O)c2ccc(O)cc2)C(=O)N2C(C(=O)O)=C(CSc3nnnn3C)CO[C@@H]21 (stereo partly specified)	11300
CCOC(=O)C1=C(C)NC(C)=C(C(=O)OCC)C1c1ccccc1/C=C/C(=O)OC(C)(C)C	7100
CC(Cc1cccc(C(F)(F)F)c1)NCCOC(=O)c1ccccc1 (stereo unspecified)	8560
NC(=O)NC(=O)Cc1ccccc1	11800

Could you now look at the following molecule, please?
Sure, the documented cell count for `O=c1[nH]c(=O)n([C@H]2C[C@H](O)[C@@H](CO)O2)cc1F` is 4160
